Experiment: Pharmacokinetic study after oral administration, plasma by UPLC-MS/MS
Assay type: in vivo, C57BL/6J mice
Details: C57BL/6J, mouse; oral 40 mg/kg, mice plasma; read-out: MRT (0-t) (converted)
Experimental: […] The validated method was applied to the pharmacokinetic study of YWS01125 in normal C57BL/6J mice after oral administration, at doses of 10, 20, and 40 mg/kg suspensions with sodium carboxymethyl cellulose (CMCNa). YWS01125 was measured in the plasma until the last blood collection time (24 h). […]
Attribute Measured: MRT last (h)
The reply should contain only the number, in h.

# input What does the data say about its MRT last? Entry: N#Cc1cn(-c2cc(Cl)c(Oc3cc(C4CCC4)c(=O)[nH]n3)c(Cl)c2)c(=O)[nH]c1=O [YWS01125]
# output 4.57
